- System: mouse p16Ink4a+/- lung fibroblasts (INKBRITE, bleomycin-injured)
- Assay Procedure: GFP- (p16Ink4a-) cell count relative to negative-control wells (fold of vehicle); higher = more p16Ink4a- cells surviving
- Experimental Conditions: 1 µM; 3 days
Counter-ions that a name gives are not always drawn. In all, about 1,800 compounds were measured (“GFP- (p16Ink4a-) cell count relative to negative-control wells”: median about 0.99, lowest 2% from about 0.5 on). What follows is part of a selection rich in the lowest values, with near analogues and random picks from the rest.
Respond with T for GFP- values of 0.8 and above, F for values below.

Molecule | System Tested | Answer Label
C=C1CC[C@H](O)C/C1=C/C=C1\CCC[C@]2(C)[C@@H]([C@H](C)CCCC(C)(C)O)CC[C@@H]12 [Calcidiol] | mouse p16Ink4a+/- lung fibroblasts (INKBRITE, bleomycin-injured) | T
C[C@H]1C[C@@H]2[C@H]([C@@H](O)C[C@@]3(C)[C@H]2CC[C@]3(O)C(=O)CO)[C@@]2(C)C=CC(=O)C=C12 [Methylprednisolone] | mouse p16Ink4a+/- lung fibroblasts (INKBRITE, bleomycin-injured) | T
CC(C)=CCC[C@](C)(O[C@@H]1O[C@H](CO[C@@H]2OC[C@@H](O)[C@H](O)[C@H]2O)[C@@H](O)[C@H](O)[C@H]1O)[C@H]1CC[C@]2(C)[C@@H]1[C@H](O)C[C@@H]1[C@@]3(C)CC[C@H](O[C@@H]4O[C@H](CO)[C@@H](O)[C@H](O)[C@H]4O)C(C)(C)[C@@H]3CC[C@]12C [Gynostemma Extract] | mouse p16Ink4a+/- lung fibroblasts (INKBRITE, bleomycin-injured) | T
COc1ccc(C(C)=O)c(O)c1 [Paeonol] | mouse p16Ink4a+/- lung fibroblasts (INKBRITE, bleomycin-injured) | T
Cn1cc(-c2cnn3c(N)c(Br)c([C@@H]4CCCNC4)nc23)cn1 | mouse p16Ink4a+/- lung fibroblasts (INKBRITE, bleomycin-injured) | T
Cc1ccc(-n2sc(=O)n(Cc3ccc(F)cc3)c2=O)cc1 | mouse p16Ink4a+/- lung fibroblasts (INKBRITE, bleomycin-injured) | T
COc1ccc(-c2ccc3ncc4c(c3c2)n(-c2ccc(N3CCNCC3)c(C(F)(F)F)c2)c(=O)n4C)cn1 | mouse p16Ink4a+/- lung fibroblasts (INKBRITE, bleomycin-injured) | F
Cc1ccc(NC(=O)C2(c3ccc4c(c3)OC(F)(F)O4)CC2)nc1-c1cccc(C(=O)O)c1 [Lumacaftor] | mouse p16Ink4a+/- lung fibroblasts (INKBRITE, bleomycin-injured) | T
CCOC(=O)C1=C(C)N=C(C)/C(=C(/O)OCC)C1c1ccccc1/C=C/C(=O)OC(C)(C)C (configuration not stated) [Lacidipine] | mouse p16Ink4a+/- lung fibroblasts (INKBRITE, bleomycin-injured) | T
C=C1/C(=C\C=C2/CCC[C@]3(C)[C@@H]([C@H](C)CCCC(C)(C)O)CC[C@@H]23)C[C@@H](O)C[C@@H]1O [Calcitriol, DN-101] | mouse p16Ink4a+/- lung fibroblasts (INKBRITE, bleomycin-injured) | T
CNCC[C@@H](Oc1ccccc1C)c1ccccc1 [Atomoxetine] | mouse p16Ink4a+/- lung fibroblasts (INKBRITE, bleomycin-injured) | T
CCOC(=O)c1c(CSc2ccccc2)n(C)c2cc(Br)c(O)c(CN(C)C)c12 [Arbidol HCl] | mouse p16Ink4a+/- lung fibroblasts (INKBRITE, bleomycin-injured) | T
CS(=O)(=O)OCCCCOS(C)(=O)=O [Busulfan] | mouse p16Ink4a+/- lung fibroblasts (INKBRITE, bleomycin-injured) | T
C[C@]12CC[C@H](O)CC1=CCC1C2CC[C@]2(C)C(n3cnc4ccccc43)=CCC12 (some centres not stated) [Galeterone] | mouse p16Ink4a+/- lung fibroblasts (INKBRITE, bleomycin-injured) | T
CC(C)(C)c1nc(-c2cccc(NS(=O)(=O)c3c(F)cccc3F)c2F)c(-c2ccnc(N)n2)s1 [Dabrafenib] | mouse p16Ink4a+/- lung fibroblasts (INKBRITE, bleomycin-injured) | F
O=C(NC(Cc1cc(O)nc2ccccc12)C(=O)O)c1ccc(Cl)cc1 (configuration not stated) [Rebamipide] | mouse p16Ink4a+/- lung fibroblasts (INKBRITE, bleomycin-injured) | T
C[C@@H]1CN(c2c(F)c(N)c3c(=O)c(C(=O)O)cn(C4CC4)c3c2F)C[C@H](C)N1 [Sparfloxacin] | mouse p16Ink4a+/- lung fibroblasts (INKBRITE, bleomycin-injured) | T
O=C(O)C1=CO[C@@H](O[C@@H]2O[C@H](CO)[C@@H](O)[C@H](O)[C@H]2O)[C@@H]2C(CO)=CC[C@H]12 [Geniposidic acid] | mouse p16Ink4a+/- lung fibroblasts (INKBRITE, bleomycin-injured) | T
Cn1c(=O)n(-c2ccc(C(C)(C)C#N)cc2)c2c3cc(-c4cnc5ccccc5c4)ccc3ncc21 [Dactolisib] | mouse p16Ink4a+/- lung fibroblasts (INKBRITE, bleomycin-injured) | F
COc1cc(-c2cc3ccccc3[nH]2)[nH]c1/C=C1\N=C(C)C=C1C [Obatoclax Mesylate] | mouse p16Ink4a+/- lung fibroblasts (INKBRITE, bleomycin-injured) | F
N=C(N)Nc1ccc(C(=O)Oc2ccc3cc(C(=N)N)ccc3c2)cc1 [Nafamostat] | mouse p16Ink4a+/- lung fibroblasts (INKBRITE, bleomycin-injured) | T
